Assay: cAMP Responsive Elements (CRE) small molecule antagonists, cell-based qHTS assay (AID 1963591)
Settings: CRE-bla HEK293T, beta-lactamase FRET ratio; series mostly up to 92.4 µM
Inconclusive results are not listed. The source made the active and inactive calls. Calls come from the whole dose curve; as a rule, active = well fitted inhibition curve with a large enough effect in the signal ratio in the repeat runs (not every such curve was filed as active); inconclusive = weak or mixed curves, or effect the other way; inactive = flat fitted curve, though single readings scatter; the % refers to the signal ratio.
Possible outcomes: YES = active, NO = inactive

compound	qualitative-label
O=P(Oc1ccccc1)(Oc1ccccc1)Oc1ccccc1	NO
CCOC(=O)c1ccccc1S(=O)(=O)NC(=O)Nc1nc(Cl)cc(OC)n1	NO
ClC(Cl)=C(c1ccc(Cl)cc1)c1ccc(Cl)cc1	NO
ClCc1ccccc1	NO
O=[N+]([O-])c1ccc([As](=O)(O)O)cc1	NO
CCn1cc[n+](C)c1	NO
CCN(CC)c1ccccc1	NO
CC1(C)C(=O)NC(=O)NC1=O	NO
CCC1(c2ccc(N)cc2)CCC(=O)NC1=O (stereo unspecified)	NO
CCOS(C)(=O)=O	NO
CCNc1nc(Cl)nc(NC(C)(C)C#N)n1	NO
CC(=O)CCC(C)=O	NO
CCc1cnc(C2=NC(C)(C(C)C)C(=O)N2)c(C(=O)O)c1 (stereo unspecified)	NO
CC(O)CN1CCN(CC(=O)[O-])CCN(CC(=O)[O-])CCN(CC(=O)[O-])CC1.[Gd+3] (stereo unspecified)	NO
CNC(=O)Oc1ccccc1OC(C)C	NO
CCC(Br)(CC)C(=O)NC(N)=O	NO
CC(C)(C)OOC(=O)c1ccccc1	NO
COc1ccc(C(O)(c2cncnc2)C2CC2)cc1 (stereo unspecified)	NO
CC1(C)C(C=C(Cl)Cl)C1C(=O)OC(C#N)c1cccc(Oc2ccccc2)c1 (stereo unspecified)	NO
CN(C)N=O	NO
Cc1cc(Cl)ccc1OCC(=O)O	NO
CN1C[C@H](C(=O)N[C@]2(C)O[C@@]3(O)[C@@H]4CCCN4C(=O)[C@H](Cc4ccccc4)N3C2=O)C=C2c3cccc4[nH]cc(c34)C[C@H]21	YES
COP(=O)(NC(C)=O)SC (stereo unspecified)	NO
CCCCCCCCCCCC#N	NO
C#CC(C)(C)NC(=O)c1cc(Cl)cc(Cl)c1	NO
Cc1coc2c1CCC(C)C2 (stereo unspecified)	NO
CC[N+](CC)(CC)CC	NO
Cn1c(N)nc2c3cccnc3ccc21	NO
CC(C)NC(C)C	NO
CC(C)c1ccc(O)cc1	NO
C=CCBr	NO
CC(C#N)CCC#N (stereo unspecified)	NO
CC1CC(=O)O1 (stereo unspecified)	NO
c1ccc(P(c2ccccc2)c2ccccc2)cc1	NO
Cc1cc(Cl)ccc1O	NO
Cc1ccc(O)c(C)c1	NO
CCCCOC(=O)CCC(=O)OCCCC	NO
C=Cc1cccc(CCl)c1	NO
Cc1cnc(C2=NC(C)(C(C)C)C(=O)N2)c(C(=O)O)c1 (stereo unspecified)	NO
Cl/C=C/Cl	NO
COC(=O)c1ccc(CBr)cc1	NO
S=c1[nH]c2ccccc2[nH]1	NO
O=[N+]([O-])c1ccc(Cl)c(Cl)c1	NO
Cc1ccc(N)cc1C	NO
COc1ccc(N)cc1	NO
CC(=O)O	NO
C=C(C)CCl	NO
CC(c1ccc(O)cc1)c1ccc(O)cc1	NO
CN(C)C(=O)C(c1ccccc1)c1ccccc1	NO
CC1C=[C-]C=C1.[C-]#[O+].[C-]#[O+].[C-]#[O+].[Mn]	NO
CCCCC#N	NO
c1cc2c(c(N3CCNCC3)c1)OCCO2	NO
Nc1cccnc1	NO
Cn1c(-c2ccccc2)cc(-c2ccccc2)[n+]1C	NO
CCCC[N+]1(C)CCCCC1	NO
CCCN(CCOc1c(Cl)cc(Cl)cc1Cl)C(=O)n1ccnc1	NO
CCCCC(C#N)(Cn1cncn1)c1ccc(Cl)cc1 (stereo unspecified)	NO
CCCCCCCCCCOC(=O)c1ccccc1C(=O)OCCCCCCCCCC	NO
NC(=O)CCl	NO
CCOP(=S)(OCC)Oc1ccc([N+](=O)[O-])cc1	NO
CON(C)C(=O)Nc1ccc(Cl)cc1	NO
